Test system: Huh7 human hepatoma cell line (the 21-5 cell line)
measurement_conditions: read-out: IC50 for cytotoxicity (concentration decreasing cell viability by 50%); 72 hr; host cell rRNA levels by TaqMan RT-PCR
From the text: Cells were processed 72 hr later when the cells were still sub-confluent.
experimental_endpoint: IC50

Any idea what its IC50 is? The compound is `O=C(NO)C1(CS(=O)(=O)c2ccc(Oc3ccc(Cl)cc3)cc2)CCOCC1` ~25 µM

These entries and their values trace back to patent US20080207569A1.
